Measured IC50 values are reported for all entries that follow.
Target: MRGPRX2 (Homo sapiens)
Experiment: MRGPRX2 IP1 HTRF Assay
Type: cell-based
Design: host or cells: CHO-K1
Conditions: CHO-K1 cells stably expressing human MRGPRX2; IP1 accumulation; agonist Cortistatin 14 1 μM

For orientation, consider the following solved cases.
compound | parameter measured | obs value
O=c1ccc(C2CCCN2C(c2cc3ncc(Oc4ccc(F)cc4F)cc3cn2)C(F)(F)F)c[nH]1 (stereo not drawn) [Example 20] | IC50 | 0.0001 to 0.1 µM
Fc1ccc(Oc2cnc3cc(C(N4CC(F)(F)CC4c4ccccc4)C(F)(F)F)ncc3c2)c(F)c1 (stereo not drawn) [Example 18] | IC50 | 0.0001 to 0.1 µM
Fc1ccc(Oc2cnc3cc(C(N4CCC(F)(F)C4c4ccccc4)C(F)(F)F)ncc3c2)c(F)c1 (stereo not drawn) [Example 19] | IC50 | 0.0001 to 0.1 µM
CC(c1cc2ncc(Oc3ccc(F)cc3F)cc2cn1)N1CCC(F)(F)C(c2ccc(=O)[nH]c2)C1 (stereo not drawn) [Example 4] | IC50 | 0.0001 to 0.1 µM
O=c1ccc(C2CCCN(C(c3cc4ncc(Oc5ccc(F)cc5F)cc4cn3)C(F)(F)F)C2)cn1CC(F)(F)F (stereo not drawn) [Example 16] | IC50 | 0.0001 to 0.1 µM

Tell me the measured IC50 of NC(=O)[C@@H]1CCCN1C(c1cc2ncc(Oc3ccc(F)cc3F)cc2cn1)C(F)(F)F (stereo partly drawn) [Example 14] , please.
0.0001 to 0.1 µM

Next compound: CC(c1cc2ncc(Oc3ccc(F)cc3F)cc2cn1)N1CCCC(F)(F)C1 (stereo not drawn) [Example 2]
0.1 to 1 µM

Next compound: Fc1ccc(Oc2cnc3cc(C(N4CCCC4c4ccncc4)C(F)(F)F)ncc3c2)c(F)c1 (stereo not drawn) [Example 12]
0.0001 to 0.1 µM

Next compound: CC(c1cc2ncc(Oc3ccc(F)cc3F)cc2cn1)N1CCC(F)(F)CC1 (stereo not drawn) [Example 1]
0.1 to 1 µM

Next compound: Fc1ccc(Oc2cnc3cc(C(N4CCCC4c4ccccc4)C(F)(F)F)ncc3c2)c(F)c1 (stereo not drawn) [Example 7]
0.0001 to 0.1 µM

Next compound: Fc1ccc(Oc2cnc3cc(C(N4CCCCC4)C(F)(F)F)ncc3c2)c(F)c1 (stereo not drawn) [Example 5]
0.1 to 1 µM

Next compound: COc1ccc(C2CCCN2C(c2cc3ncc(Oc4ccc(F)cc4F)cc3cn2)C(F)(F)F)cc1 (stereo not drawn) [Example 15]
0.0001 to 0.1 µM

Next compound: CC(c1cc2ncc(Oc3ccc(F)cc3F)cc2cn1)N1CCCC1c1ccccc1 (stereo not drawn) [Example 3]
0.0001 to 0.1 µM

Next compound: Fc1ccc(Oc2cnc3cc(C(N4CCC(F)(F)CC4)C(F)(F)F)ncc3c2)c(F)c1 (stereo not drawn) [Example 6]
0.0001 to 0.1 µM

Next compound: O=c1ccc(C2CN(C(c3cc4ncc(Oc5ccc(F)cc5F)cc4cn3)C(F)(F)F)CCC2(F)F)c[nH]1 (stereo not drawn) [Example 17]
0.0001 to 0.1 µM

* * *

Target: MRGPRX2 (Homo sapiens)
Sequence (Q96LB1 1-330): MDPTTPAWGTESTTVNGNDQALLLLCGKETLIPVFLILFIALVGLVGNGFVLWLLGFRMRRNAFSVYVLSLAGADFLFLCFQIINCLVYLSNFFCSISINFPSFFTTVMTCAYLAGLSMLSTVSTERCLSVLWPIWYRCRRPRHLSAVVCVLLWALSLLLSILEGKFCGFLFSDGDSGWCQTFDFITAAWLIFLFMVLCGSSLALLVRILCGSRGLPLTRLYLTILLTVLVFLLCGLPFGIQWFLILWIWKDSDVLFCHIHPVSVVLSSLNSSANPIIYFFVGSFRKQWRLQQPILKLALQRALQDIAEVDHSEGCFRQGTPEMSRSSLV
Experiment: MRGPRX2 β-Arrestin Assay
Assay type: cell-based
Design: host or cells: PathHunter CHO-K1
Settings: PathHunter CHO-K1 MRGPRX2 β-Arrestin cell line; agonist Cortistatin 14 0.25 μM
parameter measured: IC50

Tell me the measured IC50 of Fc1ccc(Oc2cnc3cc(C(N4CCC(F)(F)C4c4ccccc4)C(F)(F)F)ncc3c2)c(F)c1 (stereo not shown) , please.
0.1 to 100 nM

Next compound: Fc1ccc(Oc2cnc3cc(C(N4CCCCC4)C(F)(F)F)ncc3c2)c(F)c1 (stereo not shown)
0.1 to 100 nM

Next compound: O=c1ccc(C2CN(C(c3cc4ncc(Cc5ccccc5)cc4cn3)C(F)(F)F)CCC2(F)F)c[nH]1 (stereo not shown)
> 1000 nM

Next compound: Fc1ccc(Oc2cnc3cc(C(N4CC(F)(F)CC4c4ccccc4)C(F)(F)F)ncc3c2)c(F)c1 (stereo not shown)
0.1 to 100 nM
